Just for reference, ChEMBL document CHEMBL1201862 is where these values come from.

Tested on: NCI-H522
Experiment: NCI tumour cell line growth inhibition, 48 h
Activity calls are given as the source filed them. No stated cut-off is given here; in the data, active = GI50 up to about 1.1 µM and inactive = higher.
readout name: GI50

As a guide, the following entries are already answered.
INSERT INTO results (molecule, readout_name, reported_measurement) VALUES
  ('Cc1ccc(C(=O)C(C)N)cc1 (configuration not stated)', 'GI50', '> 100 µM (inactive)'),
  ('CC1(C)O/C(=C\c2ccccc2)C(=O)/C(=C/c2ccccc2)O1', 'GI50', '3.4 µM (inactive)'),
  ('Cc1ccc(/C=N/Nc2ccccn2)s1', 'GI50', '12.5 µM (inactive)'),
  ('CC(C)(C)c1cc(/C=C2/NC(=O)NC2=O)cc(C(C)(C)C)c1O', 'GI50', '12 µM (inactive)'),
  ('CS(=O)(=O)Nc1ccc2ccccc2c1-c1c(NS(C)(=O)=O)ccc2ccccc12', 'GI50', '> 25 µM (inactive)'),
  ('COc1ccc(CC2COc3cc(O)cc(O)c3C2=O)cc1O (configuration not stated)', 'GI50', '4.7 µM (inactive)');

# context switch: different molecule, same GI50
Just so you know, measured GI50 for Cc1ccc(S(=O)(=O)N(CC(O)c2ccccc2)c2ccccc2F)cc1 (configuration not stated) came out at 17.3 µM (inactive)

* * *

Test system: M14
Assay: NCI tumour cell line growth inhibition, 48 h
Calls of active or inactive are those of the source. Rule as the data show it: active = GI50 up to about 1.1 µM and inactive = higher.
readout name: GI50

INSERT INTO measurements (molecule, readout_name, reported_measurement) VALUES
  ('COc1cccc(/C=N/C(/N=C/c2cccc(OC)c2O)c2cccc(OC)c2O)c1O', 'GI50', '17.1 µM (inactive)'),
  ('FC(F)(F)c1ccc2c(c1)nc1n2C(c2c(Cl)cccc2Cl)SC1 (stereo not given)', 'GI50', '16.1 µM (inactive)'),
  ('CN(C)CC(CO)(CN(C)C)CN(C)C', 'GI50', '> 100 µM (inactive)');

// field: GI50; key: N#Cc1c(N2CCN(c3ccc([N+](=O)[O-])cc3)CC2)[n+]([O-])c2ccc(-c3ccc([N+](=O)[O-])cc3)cc2[n+]1[O-] ; value = 19.2 µM (inactive)

The recorded GI50 for CC1COS(=O)O1 (stereo not given) is > 100 µM (inactive)

* * *

// GI50 lookup, one value per entry
Tested on: T47D
Experiment: NCI tumour cell line growth inhibition, 48 h
Activity calls are given as the source filed them. No stated cut-off is given here; in the data, active = GI50 up to about 1.1 µM and inactive = higher.

INSERT INTO measurements (molecule, reported_measurement) VALUES
  ('CC/N=C(\N)CSS(=O)(=O)O', '> 100 µM (inactive)'),
  ('O=C1Oc2ccccc2C(=O)/C1=C\NC(=S)c1ccncc1', '> 100 µM (inactive)'),
  ('O=C(CCCN1CCC(C(O)c2ccc(F)cc2)CC1)c1ccc(F)cc1 (stereo not given)', '56.1 µM (inactive)'),
  ('Cc1ccc(C)c2c1NC(=O)/C2=N\Nc1ccccc1[N+](=O)[O-]', '> 100 µM (inactive)'),
  ('O=C1c2ccccc2C(=O)c2[nH]c(=O)c(/C=N/Nc3ccc([N+](=O)[O-])cc3)nc21', '> 47.2 µM (inactive)');

The recorded GI50 for entry O=C(CCC(NC(=O)OCc1ccccc1)C(=O)OCc1ccccc1)Nc1cccc(OCc2ccccc2)c1 (stereo not given) equals 19.5 µM (inactive)

For reference, reported GI50 for COc1cc(CNc2ccc3nc4n(c(=O)c3c2)CCCCC4)cc(OC)c1OC stands at 24.1 µM (inactive)

GI50 measured on CC(=O)c1[nH]c(Nc2ccc(C)cc2)c(C(=S)Nc2ccccc2)c1N = 12.8 µM (inactive)

Consider N[C@]1(C(=O)O)C[C@@H]2C(Br)=NO[C@@H]2C1 . Its measured GI50 is > 100 µM (inactive)

The value of GI50 measured for the molecule O=[N+]([O-])C(/C(Cl)=C(/Cl)N1CCOCC1)=C1\NCCO1 turned out to be > 100 µM (inactive)

The reported GI50 of the molecule O=C1O[C@H]2C3C4CCC(C4[C@@H]2I)[C@H]13 (stereo not given in full) was > 100 µM (inactive)

So for COC(=O)C(C)(C)[C@@H]1OC(=O)N(S(=O)(=O)c2c(C)cc(C)cc2C)[C@H]1C(C)C , the logged GI50 turned out to be 63.5 µM (inactive)

Note to self: GI50 recorded for NN=C(S)Nc1cccc(Cl)c1 was 74.8 µM (inactive)

Consider COc1cc(OC)c(OC)cc1/C=N/N=C(\N)NO . Its measured GI50 is > 100 µM (inactive)

According to the records, this molecule O=C1Nc2ccccc2C1S(=O)(=O)c1ccccc1 (stereo not given) displays GI50 of > 100 µM (inactive)

Lookup result for CC(C)(C)c1ccc(OCC(=O)O)c(Cl)c1 ; measured GI50: > 100 µM (inactive)

Value of GI50 reported for the molecule N#CCCN(CCN(CCC#N)C(=O)Nc1ccccc1)C(=O)Nc1ccccc1 is > 100 µM (inactive)

What the record says about Cc1oc2c(Cl)cc(O)c(Cl)c2c2cccc1-2 : GI50 is 1.96 µM (inactive)

* * *

Tested on: NCI-H522
Assay: NCI tumour cell line growth inhibition, 48 h
Active and inactive are the calls of the source. No stated cut-off is given here; in the data, active = GI50 up to about 1.1 µM and inactive = higher.
readout name: GI50

Known GI50 results, listed for orientation:
INSERT INTO results (compound, readout_name, reported_measurement) VALUES
  ('Cc1ccc(C2(O)c3ccccc3C(=O)N(C)C2(O)c2ccc(C)cc2)cc1 (stereo unspecified)', 'GI50', '> 100 µM (inactive)'),
  ('CN(c1ccc(C(=O)c2ccc(N(C)S(C)(=O)=O)cc2)cc1)S(C)(=O)=O', 'GI50', '94.2 µM (inactive)'),
  ('Nn1c(S)nnc1COc1cccc(OCc2nnc(S)n2N)c1', 'GI50', '65.3 µM (inactive)'),
  ('Nc1ccc2cc(S(=O)(=O)O)cc(O)c2c1/N=N/c1ccc(NC(=O)Nc2ccc(/N=N/c3c(N)ccc4cc(S(=O)(=O)O)cc(O)c34)c(S(=O)(=O)O)c2)cc1S(=O)(=O)O', 'GI50', '> 100 µM (inactive)'),
  ('COC(=O)C1=NC(=S)NC(c2ccccc2)C1c1nc2ccccc2o1 (stereo unspecified)', 'GI50', '> 50 µM (inactive)');

Let's switch to this compound now.
The value of GI50 measured for the compound C=CC1(c2ccc3ccccc3c2)OCC(CC)(CC)CO1 turned out to be 24.5 µM (inactive)

* * *

System: RPMI-8226
Assay: NCI tumour cell line growth inhibition, 48 h
Active and inactive are the calls of the source. No stated cut-off is given here; in the data, active = GI50 up to about 1.1 µM and inactive = higher.
readout name: GI50

Solved entries:
INSERT INTO measurements (compound, readout_name, reported_measurement) VALUES
  ('Cc1ccc(S(=O)(=O)OCCOCCOCCOCCOCCOS(=O)(=O)c2ccc(C)cc2)cc1', 'GI50', '33.5 µM (inactive)'),
  ('O=C1C2c3[nH]c4ccccc4c3[C@@H]3CCCCC3C2C(=O)N1c1ccccc1 (some centres not stated)', 'GI50', '17.5 µM (inactive)'),
  ('N#Cc1c(-c2ccc(Cl)cc2)c(C#N)c(=O)n(NS(=O)(=O)c2ccccc2)c1O', 'GI50', '6.44 µM (inactive)'),
  ('COc1ccc2c(c1)-c1oc3ccccc3c(=O)c1CO2', 'GI50', '20.8 µM (inactive)'),
  ('CCOC(=O)c1sc2c(c1O)c(=O)n(-c1ccccc1)c(=S)n2-c1ccccc1', 'GI50', '28.2 µM (inactive)');

The compound listed as O=C1c2ccccc2C2(c3ccc(Cl)cc3)N[C@H]3CCCC[C@@H]3N12 (some centres not stated) shows GI50 equal to 54.1 µM (inactive)

For record O=C1OC(=O)c2c1c(-c1ccccc1)cn2-c1ccc(Cl)cc1 the listed GI50 is 26.8 µM (inactive)

Field GI50 (entry Nn1c(S)nnc1COc1cccc(OCc2nnc(S)n2N)c1 ) reads 53.6 µM (inactive)

Note to self: GI50 recorded for OCCNCCN1CCN(CCCN2c3ccccc3Sc3ccc(C(F)(F)F)cc32)CC1 was > 100 µM (inactive)

# GI50 of COC(=O)C(C(=O)C(=O)Nc1nc2ccc([N+](=O)[O-])cc2s1)c1nc2ccc(Cl)cc2nc1O (configuration not stated) = > 100 µM (inactive)

Value of measured GI50 for the entry N=C(CC(=O)NOC(=O)c1ccccc1)NOC(=O)c1ccccc1 : 74.6 µM (inactive)

The compound identified as Cc1cccc(-c2nc3ccc([N+](=O)[O-])cc3c(=O)o2)c1 registered its GI50 at 45.6 µM (inactive)

What the record says about CCOc1cc(C2SCC(=O)N2c2ccc3c(c2)Oc2c(Cl)c4c(c(Cl)c2=N3)Oc2cc(N3C(=O)CSC3c3ccc(O)c(OCC)c3)ccc2N=4)ccc1O (configuration not stated) : GI50 is 31.8 µM (inactive)

Summary for this compound, Cc1ccc(/N=N/c2ccc(N(CCC#N)CCC#N)cc2C)c(Br)c1 : GI50 is 4.33 µM (inactive)
